meta.source: the supplement of paper PMC6757056

B1: library; a variant is named by its letters at N, in order (parent)
chain: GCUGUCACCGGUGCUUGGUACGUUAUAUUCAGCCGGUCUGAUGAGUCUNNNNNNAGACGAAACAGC

variants of: B1; test: normalized RNA/DNA level with ligand (relative to sTRSVctl = 100) (log10 (% of sTRSVctl)); HEK293T overexpressing SLC46A1; ligand concentration (+) RNA-Seq: 6 mM; higher = less ribozyme self-cleavage, higher mRNA level; details: with (6R,S)-folinic acid; ligand present: yes
Respond with T for normalized RNA/DNA level with ligand (log10) values of 2 and above, F for values below.

The examples below pair each entry with its known result.
UGUUAG    F
GCCUCU    T

Now look at this one.
Exam item: decide whether the reported normalized RNA/DNA level with ligand (log10) for `GAUCCU` is at least 2.
T
